Where do these numbers come from? They come from ChEMBL document CHEMBL1123394.

# testSummary: Antiviral activity was measured against Vaccinia virus in rabbit kidney cells.
# Format: functional
# testParameters: Oryctolagus cuniculus
Each record is given y if its reported MCC is strictly below 10 µg/mL. Records at or above 10 µg/mL are given n.

Observe how each entry below is paired with its result.
NC(=O)c1ncn([C@@H]2O[C@H](CO)[C@@H](O)[C@H]2O)n1 = y
Nc1ncnc2c1ncn2[C@@H]1O[C@H](CO)[C@@H](O)[C@@H]1O = y
Nc1ccn([C@@H]2O[C@H](CO)[C@H](O)[C@H]2O)c(=O)n1 = n

Next compound, please.
State whether 10 µg/mL exceeds MCC recorded for O=c1ccn(C2O[C@H](CO)[C@H](O)[C@H]2O)c(=O)[nH]1 (stereo not given in full) .
n

###

# MCC listing for each entry below
# Test system: Vero
# testSummary: Antiviral activity was measured against forest virus in african green monkey kidney (Vero B) cells.
# Type: functional
# testParameters: Chlorocebus sabaeus

Cc1cn([C@@H]2O[C@H](CO)[C@@H](O)[C@H]2O)c(=O)[nH]c1=O = > 400 µg/mL
Nc1ccn([C@@H]2O[C@H](CO)[C@H](O)[C@H]2O)c(=O)n1 = > 200 µg/mL
Nc1ncnc2c1ncn2[C@@H]1O[C@H](CO)[C@H](O)[C@H]1O = > 40 µg/mL

Field MCC (entry "Nc1nccc2c1ncn2[C@@H]1C[C@H](CO)[C@@H](O)[C@H]1O" ) reads > 400 µg/mL

###

# System: WI-38
# testSummary: Antiviral activity was measured against Rhino virus-1A in human diploid (WI-38) cells.
# Format: functional
valueType: MCC

Sample records with MCC:
Nc1nc(S)c2ncn(C3O[C@H](CO)[C@H](O)[C@H]3O)c2n1 (some centres undefined) = > 200 µg/mL
Nc1nc(O)c2c(n1)[nH]c[n+]2C1O[C@H](CO)[C@H](O)[C@H]1O (some centres undefined) = > 200 µg/mL
Nc1ncnc2c1ncn2[C@@H]1O[C@H](CO)[C@@H](O)[C@@H]1O = > 100 µg/mL

Short answer for "Cc1cn([C@@H]2O[C@H](CO)[C@@H](O)[C@H]2O)c(=O)[nH]c1=O" : MCC was > 400 µg/mL

###

# testSummary: Concentration required to reduce RNA synthesis in primary rabbit kidney cells using [3H-5]-Urd incorporation
# Assay type: functional
# testParameters: Oryctolagus cuniculus, read-out: ID50 (the source's name)
valueType: log10(IC50) (log10 of the value in µg/mL)
// stored as log10 of IC50 expressed in µg/mL

Nc1ncnc2c1ncn2[C@@H]1O[C@H](CO)[C@H](O)[C@H]1O = 1.66
Nc1ccn([C@@H]2O[C@H](CO)[C@H](O)[C@H]2O)c(=O)n1 = 1.78
Nc1nc(O)c2ncn([C@@H]3O[C@H](CO)[C@H](O)[C@H]3O)c2n1 = 1.79
Nc1ccn([C@@H]2O[C@H](CO)[C@@H](O)[C@@H]2O)c(=O)n1 [CYTARABINE] = -1.52

Now examine the next entry.
Value of measured log10(IC50) for the entry Nc1ncnc2c1ncn2[C@@H]1O[C@H](CO)[C@@H](O)[C@@H]1O [VIDARABINE] : 1.18

###

# Tested on: Vero
# testSummary: Antiviral activity was measured against forest virus in african green monkey kidney (Vero B) cells.
# Type: functional
# testParameters: Chlorocebus sabaeus
Entries and their MCC values follow.

Recorded results for 5 compounds are shown here.
Nc1ncnc2c1ncn2C1O[C@H](CO)[C@H](O)[C@H]1O (stereo not given in full) = > 400 µg/mL
Nc1nc(O)c2c(n1)[nH]c[n+]2C1O[C@H](CO)[C@H](O)[C@H]1O (stereo not given in full) = > 200 µg/mL
Nc1ncnc2c1ccn2[C@@H]1O[C@H](CO)[C@@H](O)[C@H]1O = > 0.4 µg/mL
Nc1ncnc2c1ncn2[C@@H]1O[C@H](CO)[C@@H](O)[C@@H]1O = > 100 µg/mL
NC(=O)c1ncn([C@H]2O[C@H](CO)[C@H](O)[C@H]2O)c1N = > 400 µg/mL

For the compound O=c1ccn(C2O[C@H](CO)[C@H](O)[C@H]2O)c(=O)[nH]1 (stereo not given in full) , the measured MCC on Vero was > 400 µg/mL

Bench note, Vero: entry "NC(=O)c1ncn([C@@H]2O[C@H](CO)[C@@H](O)[C@H]2O)n1" , its MCC = 70 µg/mL
